assay: Oral pharmacokinetics; assay type: in vivo, BALB/c mice; settings: BALB/c, mouse, plasma, po, 100 mg/kg
quantity name: AUC (µg·h/mL)

[
  {
    "chemical string": "O=C(Nc1nc(-c2ccc(F)cc2)cs1)c1ccc([N+](=O)[O-])s1",
    "quantity name": "AUC",
    "value reported": 10.3
  }
]

* * *

test system: E. coli clinical isolates; test: MIC on panel of E. coli clinical isolates; format: cell-based; details: strain SEC026
Form field: MIC (one value per entry).

[
  {
    "compound": "O=C1CN(/N=C/c2ccc([N+](=O)[O-])o2)C(=O)N1 [nitrofurantoin, reference compound]",
    "MIC [µg/mL]": 20
  },
  {
    "compound": "O=C(Nc1nc(-c2ccc(F)cc2F)cs1)c1ccc([N+](=O)[O-])s1",
    "MIC [µg/mL]": 2
  },
  {
    "compound": "CNC(C)C1CCC(N)C(OC2C(N)CC(N)C(OC3OCC(C)(O)C(NC)C3O)C2O)O1 (stereo not drawn) [gentamicin, reference compound]",
    "MIC [µg/mL]": 2
  },
  {
    "compound": "COc1cc(-c2csc(NC(=O)c3ccc([N+](=O)[O-])s3)n2)ccc1Cl",
    "MIC [µg/mL]": 8
  },
  {
    "compound": "C[C@@H](O)[C@H]1C(=O)N2C(C(=O)O)=C(S[C@@H]3CN[C@H](C(=O)N(C)C)C3)[C@H](C)[C@H]12 [meropenem, reference compound]",
    "MIC [µg/mL]": 0.13
  },
  {
    "compound": "O=C(Nc1nc(-c2ccc(F)cc2)cs1)c1ccc([N+](=O)[O-])s1",
    "MIC [µg/mL]": 2
  }
]

* * *

test system: E. coli clinical isolates; experiment: MIC on panel of E. coli clinical isolates; assay type: cell-based; conditions: strain SEC033
Form field: MIC (one value per entry).

[
  {
    "compound": "COc1cc(-c2csc(NC(=O)c3ccc([N+](=O)[O-])s3)n2)ccc1Cl [compound 20]",
    "MIC": "2 µg/mL"
  },
  {
    "compound": "CNC(C)C1CCC(N)C(OC2C(N)CC(N)C(OC3OCC(C)(O)C(NC)C3O)C2O)O1 (stereo not drawn) [gentamicin, reference compound]",
    "MIC": "> 64 µg/mL"
  },
  {
    "compound": "O=C(Nc1nc(-c2ccc(F)cc2)cs1)c1ccc([N+](=O)[O-])s1 [compound 15]",
    "MIC": "1 µg/mL"
  },
  {
    "compound": "C[C@@H](O)[C@H]1C(=O)N2C(C(=O)O)=C(S[C@@H]3CN[C@H](C(=O)N(C)C)C3)[C@H](C)[C@H]12 [meropenem, reference compound]",
    "MIC": "0.03 µg/mL"
  },
  {
    "compound": "O=C1CN(/N=C/c2ccc([N+](=O)[O-])o2)C(=O)N1 [nitrofurantoin, reference compound]",
    "MIC": "20 µg/mL"
  },
  {
    "compound": "O=C(Nc1nc(-c2ccc(F)cc2F)cs1)c1ccc([N+](=O)[O-])s1 [compound 12]",
    "MIC": "2 µg/mL"
  }
]

* * *

Form field: MIC (one value per entry).
system: E. coli clinical isolates; experiment: MIC on panel of E. coli clinical isolates; assay type: cell-based; details: strain SEC059
quantity name: MIC (µg/mL)

[
  {
    "molecule": "O=C(Nc1nc(-c2ccc(F)cc2)cs1)c1ccc([N+](=O)[O-])s1",
    "value reported": 0.5
  },
  {
    "molecule": "CNC(C)C1CCC(N)C(OC2C(N)CC(N)C(OC3OCC(C)(O)C(NC)C3O)C2O)O1 (stereo not drawn) [gentamicin, reference compound]",
    "value reported": 2
  },
  {
    "molecule": "O=C(Nc1nc(-c2ccc(F)cc2F)cs1)c1ccc([N+](=O)[O-])s1",
    "value reported": 2
  },
  {
    "molecule": "COc1cc(-c2csc(NC(=O)c3ccc([N+](=O)[O-])s3)n2)ccc1Cl",
    "value reported": 2
  },
  {
    "molecule": "C[C@@H](O)[C@H]1C(=O)N2C(C(=O)O)=C(S[C@@H]3CN[C@H](C(=O)N(C)C)C3)[C@H](C)[C@H]12 [meropenem, reference compound]",
    "value reported": 0.06
  },
  {
    "molecule": "O=C1CN(/N=C/c2ccc([N+](=O)[O-])o2)C(=O)N1 [nitrofurantoin, reference compound]",
    "value reported": 20
  }
]

* * *

test system: E. coli clinical isolates; assay: MIC on panel of E. coli clinical isolates; assay type: cell-based; details: strain SEC011
Form field: MIC (one value per entry).
quantity name: MIC (µg/mL)

[
  {
    "compound": "O=C1CN(/N=C/c2ccc([N+](=O)[O-])o2)C(=O)N1 [nitrofurantoin, reference compound]",
    "comparison symbol": "=",
    "value reported": 40
  },
  {
    "compound": "C[C@@H](O)[C@H]1C(=O)N2C(C(=O)O)=C(S[C@@H]3CN[C@H](C(=O)N(C)C)C3)[C@H](C)[C@H]12 [meropenem, reference compound]",
    "comparison symbol": "=",
    "value reported": 0.06
  },
  {
    "compound": "O=C(Nc1nc(-c2ccc(F)cc2F)cs1)c1ccc([N+](=O)[O-])s1",
    "comparison symbol": "=",
    "value reported": 2
  },
  {
    "compound": "CNC(C)C1CCC(N)C(OC2C(N)CC(N)C(OC3OCC(C)(O)C(NC)C3O)C2O)O1 (stereo not drawn) [gentamicin, reference compound]",
    "comparison symbol": ">",
    "value reported": 64
  },
  {
    "compound": "COc1cc(-c2csc(NC(=O)c3ccc([N+](=O)[O-])s3)n2)ccc1Cl",
    "comparison symbol": "=",
    "value reported": 8
  },
  {
    "compound": "O=C(Nc1nc(-c2ccc(F)cc2)cs1)c1ccc([N+](=O)[O-])s1",
    "comparison symbol": "=",
    "value reported": 0.5
  }
]

* * *

Form field: MIC (one value per entry).
system: E. coli clinical isolates; assay: MIC on panel of E. coli clinical isolates; assay type: cell-based; details: strain SEC024

[
  {
    "compound": "CNC(C)C1CCC(N)C(OC2C(N)CC(N)C(OC3OCC(C)(O)C(NC)C3O)C2O)O1 (stereo not drawn) [gentamicin, reference compound]",
    "system name": "E. coli clinical isolates",
    "comparison symbol": ">",
    "MIC, µg/mL": 64
  },
  {
    "compound": "O=C(Nc1nc(-c2ccc(F)cc2F)cs1)c1ccc([N+](=O)[O-])s1",
    "system name": "E. coli clinical isolates",
    "comparison symbol": "=",
    "MIC, µg/mL": 2
  },
  {
    "compound": "COc1cc(-c2csc(NC(=O)c3ccc([N+](=O)[O-])s3)n2)ccc1Cl",
    "system name": "E. coli clinical isolates",
    "comparison symbol": "=",
    "MIC, µg/mL": 8
  },
  {
    "compound": "O=C(Nc1nc(-c2ccc(F)cc2)cs1)c1ccc([N+](=O)[O-])s1",
    "system name": "E. coli clinical isolates",
    "comparison symbol": "=",
    "MIC, µg/mL": 2
  },
  {
    "compound": "C[C@@H](O)[C@H]1C(=O)N2C(C(=O)O)=C(S[C@@H]3CN[C@H](C(=O)N(C)C)C3)[C@H](C)[C@H]12 [meropenem, reference compound]",
    "system name": "E. coli clinical isolates",
    "comparison symbol": "=",
    "MIC, µg/mL": 0.25
  },
  {
    "compound": "O=C1CN(/N=C/c2ccc([N+](=O)[O-])o2)C(=O)N1 [nitrofurantoin, reference compound]",
    "system name": "E. coli clinical isolates",
    "comparison symbol": "=",
    "MIC, µg/mL": 20
  }
]

* * *

assay: Oral pharmacokinetics; assay type: in vivo, BALB/c mice; settings: BALB/c, mouse, plasma; mice, single oral dose 100 mg/kg
quantity name: AUC(0-t) (ng·h/mL)

[
  {
    "chemical string": "O=C(Nc1nc(-c2ccc(F)cc2)cs1)c1ccc([N+](=O)[O-])s1",
    "value reported": 10300
  }
]

* * *

Form field: log10 of MIC (one value per entry).
system: E. coli clinical isolates; test: MIC on panel of E. coli clinical isolates; type: cell-based; settings: strain SEC058
quantity name: log10 of MIC (log10 of the value in µg/mL)

[
  {
    "compound": "COc1cc(-c2csc(NC(=O)c3ccc([N+](=O)[O-])s3)n2)ccc1Cl",
    "system name": "E. coli clinical isolates",
    "value reported": 0.90
  },
  {
    "compound": "C[C@@H](O)[C@H]1C(=O)N2C(C(=O)O)=C(S[C@@H]3CN[C@H](C(=O)N(C)C)C3)[C@H](C)[C@H]12 [meropenem, reference compound]",
    "system name": "E. coli clinical isolates",
    "value reported": -1.22
  },
  {
    "compound": "CNC(C)C1CCC(N)C(OC2C(N)CC(N)C(OC3OCC(C)(O)C(NC)C3O)C2O)O1 (stereo not drawn) [gentamicin, reference compound]",
    "system name": "E. coli clinical isolates",
    "value reported": 0.60
  },
  {
    "compound": "O=C1CN(/N=C/c2ccc([N+](=O)[O-])o2)C(=O)N1 [nitrofurantoin, reference compound]",
    "system name": "E. coli clinical isolates",
    "value reported": 1.90
  },
  {
    "compound": "O=C(Nc1nc(-c2ccc(F)cc2F)cs1)c1ccc([N+](=O)[O-])s1",
    "system name": "E. coli clinical isolates",
    "value reported": 0.60
  },
  {
    "compound": "O=C(Nc1nc(-c2ccc(F)cc2)cs1)c1ccc([N+](=O)[O-])s1",
    "system name": "E. coli clinical isolates",
    "value reported": -0.30
  }
]

Reference source for all entries: paper PMC5940854
